Provide the reported pEC50 of each item.
System: HCV RNA replicon in cell line ET (luc-ubi-neo/ET), human Huh7 hepatoma
Assay: Luciferase Assay (Example 35), replicon-derived luciferase activity
Format: cell-based
Conditions: Hepatitis C virus, Huh-7; assay described in Example 35
pEC50: −log10 of the molar value.

Look over these answered cases.
compound: C=C[C@@H]1C[C@]1(NC(=O)[C@@H]1C[C@@H]2CN1C(=O)[C@H](CCC(=O)C=C(C)C)NC(=O)OCCC/C=C/c1ccc3ccnc(c3c1)O2)C(=O)NS(=O)(=O)C1CC1 [Compound I-102]
pEC50: > 8.00

compound: C=CC(=O)NC[C@H](NC(=O)OC(C)(C)C)C(=O)N1C[C@H](Oc2nc3ccccc3nc2-c2cccs2)C[C@H]1C(=O)N[C@]1(C(=O)NS(=O)(=O)C2CC2)C[C@H]1C=C [Compound I-109]
pEC50: 6.00 to 7.00

// each compound listed below needs its pEC50
1. C=CCN(C[C@H](NC(=O)OC(C)(C)C)C(=O)N1C[C@H](Oc2nccc3cc(OC)ccc23)C[C@H]1C(=O)N[C@]1(C(=O)NS(=O)(=O)C2CC2)C[C@H]1C=C)C(=O)C=C [Compound I-99]
2. C=CC(=O)N[C@H](C(=O)N1C[C@H](Oc2nccc3cc(OC)ccc23)C[C@H]1C(=O)N[C@]1(C(=O)NS(=O)(=O)C2CC2)C[C@H]1C=C)C(C)(C)O [Compound I-131]
3. C=C[C@@H]1C[C@]1(NC(=O)[C@@H]1C[C@@H](Oc2nccc3cc(OC)ccc23)CN1C(=O)[C@H](CC(=O)C(=C)C)NC(=O)OC(C)(C)C)C(=O)NS(=O)(=O)C1CC1 [Compound I-132]
4. C=C[C@@H]1C[C@]1(NC(=O)[C@@H]1C[C@@H](Oc2nccc3cc(OC)ccc23)CN1C(=O)[C@H](CCC(=O)/C=C/C1CCCC1)NC(=O)OC(C)(C)C)C(=O)NS(=O)(=O)C1CC1 [Compound I-141]
5. C=CC(=O)N[C@H](Cc1ccccc1)C(=O)N1C[C@H](Oc2nccc3cc(OC)ccc23)C[C@H]1C(=O)N[C@]1(C(=O)NS(=O)(=O)C2CC2)C[C@H]1C=C [Compound I-106]

Solution:
7.00 to 8.00
6.00 to 7.00
6.00 to 7.00
> 8.00
7.00 to 8.00

// each compound listed below needs its pEC50
1. C=CC(=O)N[C@H](CC(C)C)C(=O)N1C[C@H](Oc2nccc3cc(OC)ccc23)C[C@H]1C(=O)N[C@]1(C(=O)NS(=O)(=O)C2CC2)C[C@H]1C=C [Compound I-105]
2. C=CC(=O)N[C@@H](C(=O)N1C[C@H](Oc2nccc3cc(OC)ccc23)C[C@H]1C(=O)N[C@]1(C(=O)NS(=O)(=O)C2CC2)C[C@H]1C=C)C(C)C [Compound I-101]
3. C=CC1CC1(NC(=O)C1CC(n2nnc(-c3ccc(OC)cc3)n2)CN1C(=O)C(CCC(=O)C=C(C)C)NC(=O)OC(C)(C)C)C(=O)NS(=O)(=O)C1CC1 (centres unmarked) [Compound I-107]
4. C=CC(=O)NC[C@H](NC(=O)OC(C)(C)C)C(=O)N1C[C@H](Oc2nccc3cc(OC)ccc23)C[C@H]1C(=O)N[C@]1(C(=O)NS(=O)(=O)C2CC2)C[C@H]1C=C [Compound I-92]
5. CC[C@@H]1C[C@]1(NC(=O)[C@@H]1C[C@@H](Oc2nccc3cc(OC)ccc23)CN1C(=O)[C@H](CCC(=O)C=C(C)C)NC(=O)OC(C)(C)C)C(=O)NS(=O)(=O)C1CC1 [Compound I-114]

Solution:
["7.00 to 8.00", "7.00 to 8.00", "6.00 to 7.00", "7.00 to 8.00", "7.00 to 8.00"]

// each compound listed below needs its pEC50
1. C=CC(=O)NCC(NC(=O)OC(C)(C)C)C(=O)N1CC(n2nnc(-c3ccc(OC)cc3)n2)CC1C(=O)NC1(C(=O)NS(=O)(=O)C2CC2)CC1C=C (centres unmarked) [Compound I-108]
2. C=C(C)C(=O)C[C@H](NC(=O)OC(C)(C)C)C(=O)N1C[C@H](Oc2nccc3cc(OC)ccc23)C[C@H]1C(=O)N[C@]1(C(=O)NS(=O)(=O)C2CC2)C[C@H]1CC [Compound I-140]

Solution:
1: 6.00 to 7.00; 2: 6.00 to 7.00

---

System: HCV RNA replicon in cell line ET (luc-ubi-neo/ET), human Huh7 hepatoma
Test: Method A: HCV RNA replicon antiviral assay (luciferase, ET cell line)
Type: cell-based, Hepatitis C virus
Conditions: Hepatitis C virus, Huh-7; Replicon, assay of Example 22; 72 hr; read-out: Inhibition, Replicon
pIC50: −log10 of the molar value.
reported.metric: pIC50

Look over these answered cases.
compound: C=CC(=O)NCC[C@H](NC(=O)OC(C)(C)C)C(=O)N1C[C@H](Oc2cc(-c3ccccc3)nc3cc(OC)ccc23)C[C@H]1C(=O)N[C@]1(C(=O)NS(=O)(=O)c2ccccc2)C[C@H]1C=C
study.system: HCV RNA replicon in cell line ET (luc-ubi-neo/ET), human Huh7 hepatoma
pIC50: 6.00 to 7.00

compound: C=CC(=O)NC[C@H](NC(=O)OC(C)(C)C)C(=O)N1C[C@H](Oc2cc(-c3ccccc3)nc3cc(OC)ccc23)C[C@H]1C(=O)N[C@]1(C(=O)NS(=O)(=O)c2ccccc2)C[C@H]1C=C
study.system: HCV RNA replicon in cell line ET (luc-ubi-neo/ET), human Huh7 hepatoma
pIC50: 7.00 to 8.00

compound: C=CC(=O)N(C)CC[C@H](NC(=O)OC(C)(C)C)C(=O)N1C[C@H](Oc2cc(-c3ccccc3)nc3cc(OC)ccc23)C[C@H]1C(=O)N[C@]1(C(=O)NS(=O)(=O)c2ccccc2)C[C@H]1C=C
study.system: HCV RNA replicon in cell line ET (luc-ubi-neo/ET), human Huh7 hepatoma
pIC50: 7.00 to 8.00

compound: C=C[C@@H]1C[C@]1(NC(=O)[C@@H]1C[C@@H](Oc2cc(-c3ccccc3)nc3cc(OC)ccc23)CN1C(=O)[C@H](CNC(=O)C(C)Br)NC(=O)OC(C)(C)C)C(=O)NS(=O)(=O)c1ccccc1 (stereo partly drawn)
study.system: HCV RNA replicon in cell line ET (luc-ubi-neo/ET), human Huh7 hepatoma
pIC50: 6.00 to 7.00

compound: C=CC(=O)NCC(=O)N1C[C@H](Oc2cc(-c3ccccc3)nc3cc(OC)ccc23)C[C@H]1C(=O)N[C@]1(C(=O)NS(=O)(=O)c2ccccc2)C[C@H]1C=C
study.system: HCV RNA replicon in cell line ET (luc-ubi-neo/ET), human Huh7 hepatoma
pIC50: 7.00 to 8.00

compound: C#CCN(C)C(=O)CCCC(=O)N[C@@H](CNC(=O)C=C)C(=O)N1C[C@H](Oc2cc(-c3ccccc3)nc3cc(OC)ccc23)C[C@H]1C(=O)N[C@]1(C(=O)NS(=O)(=O)c2ccccc2)C[C@H]1C=C
study.system: HCV RNA replicon in cell line ET (luc-ubi-neo/ET), human Huh7 hepatoma
pIC50: < 5.00

compound: C=C[C@@H]1C[C@]1(NC(=O)[C@@H]1C[C@@H](Oc2cc(-c3ccccc3)nc3cc(OC)ccc23)CN1C(=O)[C@H](CN(C)C(=O)/C=C/CN(C)C)NC(=O)OC(C)(C)C)C(=O)NS(=O)(=O)c1ccccc1
study.system: HCV RNA replicon in cell line ET (luc-ubi-neo/ET), human Huh7 hepatoma
pIC50: 7.00 to 8.00

compound: C=C[C@@H]1C[C@]1(NC(=O)[C@@H]1C[C@@H](Oc2cc(-c3ccccc3)nc3cc(OC)ccc23)CN1C(=O)CNC(=O)/C=C/C)C(=O)NS(=O)(=O)c1ccccc1
study.system: HCV RNA replicon in cell line ET (luc-ubi-neo/ET), human Huh7 hepatoma
pIC50: 5.00 to 6.00

// each compound listed below needs its pIC50
1. C=CC(=O)NC[C@H](NC(=O)OC(C)(C)C)C(=O)N1C[C@H](Oc2cc(-c3ccccc3)nc3cc(OC)ccc23)C[C@H]1C(=O)N[C@]1(C(=O)O)C[C@H]1C=C
2. C=C[C@@H]1C[C@]1(NC(=O)[C@@H]1C[C@@H](Oc2cc(-c3ccccc3)nc3cc(OC)ccc23)CN1C(=O)[C@H](CNC(=O)/C=C/CN(C)C)NC(=O)OC(C)(C)C)C(=O)NS(=O)(=O)c1ccccc1
3. C=C[C@@H]1C[C@]1(NC(=O)[C@@H]1C[C@@H](Oc2cc(-c3ccccc3)nc3cc(OC)ccc23)CN1C(=O)[C@H](CCN(C)C(=O)CCl)NC(=O)OC(C)(C)C)C(=O)NS(=O)(=O)c1ccccc1
4. C=C[C@@H]1C[C@]1(NC(=O)[C@@H]1C[C@@H](Oc2cc(-c3ccccc3)nc3cc(OC)ccc23)CN1C(=O)[C@H](CNC(=O)/C=C/C)NC(=O)OC(C)(C)C)C(=O)NS(=O)(=O)c1ccccc1

Solution:
1: < 5.00; 2: 5.00 to 6.00; 3: 7.00 to 8.00; 4: 6.00 to 7.00
